Just for reference, patent US8309558B2 is where these values come from.

test system: HCV replicon cells; test: HCV replicon FRET / luciferase assay (96-well plates); format: cell-based; settings: Hepatitis C virus, Table 1a; HCV replicon; read-out: EC50
Documented EC50 across a set of molecules
result-type: EC50

>>> value("CNC(=O)c1c(-c2ccc(F)cc2)oc2ccc(-c3cc(Br)cnc3F)cc12")
"> 10000 nM"
>>> value("CNC(=O)c1c(-c2ccc(F)cc2)oc2cc([N+](=O)[O-])c(-c3cc(C(=O)NCC(C)C)ccc3OC)cc12")
"250 to 1000 nM"
>>> value("CNC(=O)c1c(-c2ccc(F)cc2)oc2ccc(-c3cccc(C(=O)N(C)Cc4ccccc4)c3)cc12")
"250 to 1000 nM"
>>> value("CNC(=O)c1c(-c2ccc(F)cc2)oc2ccc(-c3cccc(C(=O)N4CCCC4c4ccccn4)c3)cc12 (centres unmarked)")
"250 to 1000 nM"
>>> value("CNC(=O)c1c(-c2ccc(F)cc2)oc2ccc(-c3cccc(C(=O)NC4(c5ccccc5)CCC4)c3)cc12")
"< 250 nM"
>>> value("CNC(=O)c1c(-c2ccc(F)cc2)oc2ccc(-c3cnc(OC)nc3)cc12")
"1000 to 10000 nM"
>>> value("CNC(=O)c1c(-c2ccc(F)cc2)oc2ccc(-c3cccc(C(=O)N[C@@H](CO)CC(C)C)c3)cc12")
"1000 to 10000 nM"
>>> value("CNC(=O)c1c(-c2ccc(F)cc2)oc2ccc(-c3cccc(C(=O)Nc4ccncn4)c3)cc12")
"250 to 1000 nM"
>>> value("CNC(=O)c1c(-c2ccc(F)cc2)oc2ccc(-c3cccc(C(=O)N4CCN(C)CC4)c3)cc12")
"> 10000 nM"
>>> value("CNC(=O)c1c(-c2ccc(F)cc2)oc2ccc(-c3cccc(C(=O)Nc4ccccc4)c3)cc12")
"< 250 nM"
>>> value("CNC(=O)c1c(-c2ccc(F)cc2)oc2ccc(-c3cccc(C(=O)NC(C)C)c3)cc12")
"< 250 nM"
>>> value("CNC(=O)c1c(-c2ccc(F)cc2)oc2ccc(-c3cccc(C(=O)NCc4nccs4)c3)cc12")
"250 to 1000 nM"
>>> value("CNC(=O)c1c(-c2ccc(F)cc2)oc2ccc(-c3cc(C(=O)NC4(c5ccccc5)CC4)ccc3F)cc12 [drawing 100]")
"< 250 nM"
>>> value("CNC(=O)c1c(-c2ccc(F)cc2)oc2ccc(-c3cccc(C(=O)NC4CCCC4)c3)cc12")
"< 250 nM"
>>> value("CNC(=O)c1c(-c2ccc(F)cc2)oc2ccc(-c3ccc(C(=O)N4CCC[C@@H]4COC)cc3)cc12 [drawing 288]")
"> 10000 nM"
>>> value("CNC(=O)c1c(-c2ccc(F)cc2)oc2ccc(-c3ccccc3/C=C/C(=O)O)cc12")
"> 10000 nM"
>>> value("CNC(=O)c1c(-c2ccc(F)cc2)oc2ccc(-c3cccc(S(=O)(=O)NC)c3)cc12")
"> 3700 nM"
